The reported measurements were obtained from ChEMBL document CHEMBL4673260.

target: Neuronal acetylcholine receptor subunit alpha-7 (Rattus norvegicus, UniProt Q05941); assay: Agonist activity at rat brain alpha7 nAChR
Sequence (Q05941 whole entry): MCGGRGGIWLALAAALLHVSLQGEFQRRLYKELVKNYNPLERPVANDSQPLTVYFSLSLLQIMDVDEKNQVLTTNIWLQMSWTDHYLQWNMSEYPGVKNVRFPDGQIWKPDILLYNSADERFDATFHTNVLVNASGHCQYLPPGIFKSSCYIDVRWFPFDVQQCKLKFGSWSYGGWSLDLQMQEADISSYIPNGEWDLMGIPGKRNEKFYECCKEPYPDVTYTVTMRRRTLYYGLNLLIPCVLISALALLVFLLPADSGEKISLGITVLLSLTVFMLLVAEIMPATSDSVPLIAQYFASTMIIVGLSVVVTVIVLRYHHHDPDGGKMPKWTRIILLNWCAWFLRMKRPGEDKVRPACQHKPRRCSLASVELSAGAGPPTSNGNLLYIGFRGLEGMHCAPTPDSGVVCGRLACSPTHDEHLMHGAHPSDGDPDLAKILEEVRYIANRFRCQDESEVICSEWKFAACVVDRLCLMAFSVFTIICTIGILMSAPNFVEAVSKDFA
Assay endpoint: EC50

**Q:** # EC50 lookup, item c1cncc([C@@H]2CCCCN2)c1
**A:** 18 µM

----------
experiment: Acute toxicity in po dosed mouse administered as repeated dose for 28 days; assay type: organism-based; settings: in vivo, time 28 day
Assay endpoint: LD50 at 672 h (µmol/kg)
Answers are plain numbers, in µmol/kg.

**Q:** # LD50 at 672 h lookup, item CN(C)CC/C=C/c1cccnc1
**A:** 1.8e+06

----------
target: Cholecystokinin receptor type A (Homo sapiens, UniProt P32238); assay: Displacement of [3H]nicotine from cholecystokinin receptor type A (unknown origin)
Sequence (P32238 whole entry): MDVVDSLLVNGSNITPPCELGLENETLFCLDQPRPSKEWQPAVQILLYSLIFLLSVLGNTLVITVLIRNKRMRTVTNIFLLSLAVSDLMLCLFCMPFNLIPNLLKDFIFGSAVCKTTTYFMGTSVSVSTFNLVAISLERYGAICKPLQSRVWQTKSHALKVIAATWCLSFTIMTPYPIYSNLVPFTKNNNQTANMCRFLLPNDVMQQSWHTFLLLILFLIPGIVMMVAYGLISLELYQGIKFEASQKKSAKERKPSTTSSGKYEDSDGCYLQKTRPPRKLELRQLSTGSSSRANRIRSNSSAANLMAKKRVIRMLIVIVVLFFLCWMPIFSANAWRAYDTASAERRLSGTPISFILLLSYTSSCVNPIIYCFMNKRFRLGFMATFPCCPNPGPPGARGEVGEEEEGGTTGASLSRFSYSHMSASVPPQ
Assay endpoint: IC50

**Q:** # IC50 lookup, item CN(C)CC/C=C/c1cccnc1
**A:** > 10 µM
